Attribute: pIC50
# target: EGFR L858R (Homo sapiens (Human), UniProt P00533, L858R)
# Sequence (P00533 25-1210 L858R): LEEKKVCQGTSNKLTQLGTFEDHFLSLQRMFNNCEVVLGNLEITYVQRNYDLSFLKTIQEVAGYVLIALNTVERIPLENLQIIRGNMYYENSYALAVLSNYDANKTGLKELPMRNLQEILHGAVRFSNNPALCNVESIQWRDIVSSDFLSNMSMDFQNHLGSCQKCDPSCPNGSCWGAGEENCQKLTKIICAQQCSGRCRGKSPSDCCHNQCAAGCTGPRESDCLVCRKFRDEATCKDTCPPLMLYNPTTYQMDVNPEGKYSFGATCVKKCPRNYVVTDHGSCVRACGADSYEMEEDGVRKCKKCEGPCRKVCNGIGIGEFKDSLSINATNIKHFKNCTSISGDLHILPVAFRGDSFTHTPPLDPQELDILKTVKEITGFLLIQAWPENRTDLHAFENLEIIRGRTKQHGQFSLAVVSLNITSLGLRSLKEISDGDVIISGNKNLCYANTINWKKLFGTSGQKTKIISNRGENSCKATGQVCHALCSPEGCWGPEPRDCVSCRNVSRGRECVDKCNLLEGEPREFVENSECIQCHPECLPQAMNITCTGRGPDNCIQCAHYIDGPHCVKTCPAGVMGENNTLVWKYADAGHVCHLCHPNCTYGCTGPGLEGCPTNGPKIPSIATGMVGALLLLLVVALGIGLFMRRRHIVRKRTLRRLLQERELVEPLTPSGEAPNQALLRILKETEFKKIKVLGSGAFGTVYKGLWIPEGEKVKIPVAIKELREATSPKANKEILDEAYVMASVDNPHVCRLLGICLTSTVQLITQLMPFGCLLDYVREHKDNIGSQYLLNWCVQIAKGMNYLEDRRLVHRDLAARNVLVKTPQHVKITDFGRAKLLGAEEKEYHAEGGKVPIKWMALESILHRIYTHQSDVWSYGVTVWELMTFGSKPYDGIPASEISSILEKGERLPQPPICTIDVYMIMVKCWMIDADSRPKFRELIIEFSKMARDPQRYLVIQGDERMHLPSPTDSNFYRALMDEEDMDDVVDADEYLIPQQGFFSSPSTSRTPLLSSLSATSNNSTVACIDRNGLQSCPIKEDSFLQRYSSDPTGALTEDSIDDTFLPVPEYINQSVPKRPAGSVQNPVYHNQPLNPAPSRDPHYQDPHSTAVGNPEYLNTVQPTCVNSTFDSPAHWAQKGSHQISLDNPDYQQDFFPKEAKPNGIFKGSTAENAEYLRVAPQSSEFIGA
# procedure summary: Biochemical EGFR inhibition assay, EGFR L858R
# particulars: Caliper mobility shift; 1.0 mM ATP or ATP Km; read-out: Enz EGFR_L858R IC50
pIC50: −log10 of the molar value.
quantity kind: pIC50

In [3]: df
Out[3]:
                                    compound                                    target  result
 0  COc1cc2ncnc(-c3cn(CC4CC4)nc3-c3ccccc3)c2nc1NC(=O)[C@@]12C[C@@H]1CN(C)C2 (single isomer, unassigned) [Example 408]  EGFR L858R (Homo sapiens (Human), UniProt P00533, L858R)    8.82
 1  CCC(=O)Nc1cc2c(-c3cn(C)nc3-c3ccccc3)ncnc2cc1-n1ccc(C)n1 [Example 450]  EGFR L858R (Homo sapiens (Human), UniProt P00533, L858R)    8.92
 2  COc1cc2ncnc(-c3cn(C)nc3-c3ccc(F)cc3F)c2nc1NC(=O)C12CC(C1)C2 [Example 421]  EGFR L858R (Homo sapiens (Human), UniProt P00533, L858R)    8.89
 3  COc1cc2ncnc(-c3cn(CC(F)F)nc3-c3ccc(F)cc3)c2cc1C1(O)CC1 [Example 489]  EGFR L858R (Homo sapiens (Human), UniProt P00533, L858R)    8.16
 4  COc1cc2ncnc(-c3cn(C)nc3-c3ccccc3)c2nc1OC(=O)N1CCN(C)C[C@@H]1C [Example 55]  EGFR L858R (Homo sapiens (Human), UniProt P00533, L858R)    8.30
 5  CCC(=O)Nc1cc2c(-c3cn(C4CCOCC4)nc3-c3ccccc3)ncnc2cc1OC [Example 248]  EGFR L858R (Homo sapiens (Human), UniProt P00533, L858R)    8.70
 6  COc1cc2ncnc(-c3cn(CC(F)F)nc3-c3ccccc3)c2cc1[C@H](C)O (single isomer, unassigned) [Example 101]  EGFR L858R (Homo sapiens (Human), UniProt P00533, L858R)    8.49
 7  CCOc1cc2ncnc(-c3cn(C)nc3-c3ccccc3)c2cc1OC(=O)N1CCO[C@H](C)C1 [Example 73]  EGFR L858R (Homo sapiens (Human), UniProt P00533, L858R)    8.54
 8  COc1cc2ncnc(-c3cn(C)nc3-c3ccccc3)c2cc1N1CCN(C)C1=O [Example 176]  EGFR L858R (Homo sapiens (Human), UniProt P00533, L858R)    8.27
 9  COc1cc2ncnc(-c3cn(C)nc3-c3ccccc3F)c2cc1NC(=O)C1(CN(C)C)CC1 [Example 188]  EGFR L858R (Homo sapiens (Human), UniProt P00533, L858R)    8.70
10  COc1cc2ncnc(-c3cn(C)nc3-c3ccccc3)c2nc1NC(=O)C12CC(C1)C2 [Example 309]  EGFR L858R (Homo sapiens (Human), UniProt P00533, L858R)    8.51
11  COc1cc2ncnc(-c3cn(C)nc3-c3ccccc3)c2nc1NC(=O)[C@@]12COC[C@@H]1C2 (single isomer, unassigned) [Example 431]  EGFR L858R (Homo sapiens (Human), UniProt P00533, L858R)    8.85
12  CCn1cc(-c2ncnc3cc(OC)c([C@H](C)O)cc23)c(-c2ccccc2)n1 (single isomer, unassigned) [Example 105]  EGFR L858R (Homo sapiens (Human), UniProt P00533, L858R)    8.48
13  COc1cc2ncnc(-c3cn(C)nc3-c3ccccc3)c2cc1NC(=O)[C@@]12COC[C@@H]1C2 (single isomer, unassigned) [Example 261]  EGFR L858R (Homo sapiens (Human), UniProt P00533, L858R)    8.55
14  COc1cc2ncnc(-c3cn(C)nc3-c3ccccc3)c2cc1NC(=O)[C@H]1CCCN1C (single isomer, unassigned) [Example 242]  EGFR L858R (Homo sapiens (Human), UniProt P00533, L858R)    8.15
15  COc1cc2ncnc(-c3cn(C)nc3-c3ccccc3)c2cc1NC(=O)c1cccc(F)c1C [Example 200]  EGFR L858R (Homo sapiens (Human), UniProt P00533, L858R)    8.24
16  COc1cc2ncnc(-c3cn(CC(F)F)nc3-c3ccccc3)c2cc1OC(=O)N1CCOC[C@@H]1C [Example 76]  EGFR L858R (Homo sapiens (Human), UniProt P00533, L858R)    8.68
17  CCn1cc(-c2ncnc3cc(OC)c(NC(=O)c4cnn(C(F)(F)F)c4)nc23)c(-c2ccccc2)n1 [Example 314]  EGFR L858R (Homo sapiens (Human), UniProt P00533, L858R)    8.85
18  COc1cc2ncnc(-c3cn(CC(F)F)nc3-c3ccccc3)c2cc1NC(=O)c1cnn(C(C)C)c1 [Example 270]  EGFR L858R (Homo sapiens (Human), UniProt P00533, L858R)    8.68
19  Cc1ncsc1C(=O)Nc1cc2c(-c3cn(C)nc3-c3ccccc3)ncnc2cc1OCCN(C)C [Example 303]  EGFR L858R (Homo sapiens (Human), UniProt P00533, L858R)    7.96
20  COc1cc2ncnc(-c3sc(C)nc3-c3ccccc3)c2nc1NC(=O)C1CC1 [Example 437]  EGFR L858R (Homo sapiens (Human), UniProt P00533, L858R)    8.85
21  COc1cc2ncnc(-c3cn(C)nc3-c3ccccc3F)c2cc1N1CCOCC1 [Example 159]  EGFR L858R (Homo sapiens (Human), UniProt P00533, L858R)    8.52
22  COc1cc2ncnc(-c3cn(C)nc3-c3ccccc3)c2cc1[C@H](C)O (single isomer, unassigned) [Example 116]  EGFR L858R (Homo sapiens (Human), UniProt P00533, L858R)    8.92
23  COc1cc2ncnc(-c3cn(C)nc3-c3ccccc3)c2cc1NC(=O)c1cncnc1 [Example 193]  EGFR L858R (Homo sapiens (Human), UniProt P00533, L858R)    8.82
24  [2H]C([2H])([2H])n1ncc(-c2ncnc3cc(OC)c(NC(=O)C4(C(F)(F)F)CC4)nc23)c1-c1ccccc1 [Example 492]  EGFR L858R (Homo sapiens (Human), UniProt P00533, L858R)    7.15
25  COc1cc2ncnc(-c3cn(C)nc3-c3ccc(F)cc3)c2cc1NC(=O)C1CC(F)(F)C1 [Example 212]  EGFR L858R (Homo sapiens (Human), UniProt P00533, L858R)    9.40
26  Cn1cc(-c2ncnc3cc(C(F)(F)F)c(NC(=O)C45COCC4C5)nc23)c(-c2ccccc2)n1 (stereo not drawn) [Example 483]  EGFR L858R (Homo sapiens (Human), UniProt P00533, L858R)    6.13
27  COc1cc2ncnc(-c3cn(CC(F)F)nc3-c3ccccc3)c2nc1OC [Example 20]  EGFR L858R (Homo sapiens (Human), UniProt P00533, L858R)    8.92
28  CN(C)CCOc1cc2ncnc(-c3cn(C)nc3-c3ccccc3)c2cc1NC(=O)c1ccccc1F [Example 300]  EGFR L858R (Homo sapiens (Human), UniProt P00533, L858R)    8.30
29  COc1cc2ncnc(-c3cn(C)nc3-c3ccccc3F)c2nc1NC(=O)C1CC1 [Example 356]  EGFR L858R (Homo sapiens (Human), UniProt P00533, L858R)    8.72
